Cited source: paper PMC7156458

Recorded Th-T fluorescence, mean of three wells (Fig. 7a) by entry
# SYSTEM: Aβ42 (Homo sapiens, UniProt P05067)
# Sequence (P05067 672-713): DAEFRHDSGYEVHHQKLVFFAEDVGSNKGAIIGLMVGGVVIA
# PROTOCOL: Th-T (thioflavin-T) assay of Aβ42 aggregation
# Assay type: biochemical
# CONDITION DESCRIPTION: reading M120; compound at 50 (head suffix _50)
Keep the answer to the number alone.

Examples from the recorded data:
COMPOUND	ENDPOINT RESULT
C=C1CC[C@@H]2[C@](C)(CC[C@H]3O[C@H](C=C(C)C)C[C@@]23C)[C@@H]1Cc1c(OC)oc(CO)c(C(=O)OC)c1=O	0.4937
C=C1CCC2C(C)(CCC=C(C)C)C(O)CCC2(C)C1Cc1c(OC)oc(C)c(C(=O)OC)c1=O (centres unmarked)	1.015

Need Th-T fluorescence, mean of three wells (Fig. 7a), item C=C1CC[C@@H]2[C@](C)(CC[C@H]3O[C@H](C=C(C)C)C[C@@]23C)[C@@H]1Cc1c(OC)oc(CO)c(C)c1=O
2.103

Okay, and C=C1CCC2C(C)(CCC=C(C)C)C(O)CCC2(C)C1Cc1c(OC)oc(CO)c(C(=O)OC)c1=O (centres unmarked) ?
0.4773

Okay, and C=C1CCC2C(C)(CCC=C(C)C)C(O)CCC2(C)C1Cc1c(OC)oc(CO)c(C)c1=O (centres unmarked) ?
1.517

----------
# SYSTEM: Aβ42 (Homo sapiens, UniProt P05067)
# PROTOCOL: Th-T (thioflavin-T) assay of Aβ42 aggregation
# Type: biochemical
# CONDITION DESCRIPTION: reading M118; compound at 50 (head suffix _50)
QUANTITY NAME: Th-T fluorescence, mean of three wells (Fig. 7a)
Keep the answer to the number alone.

Examples from the recorded data:
MOLECULE	ENDPOINT RESULT
C=C1CCC2C(C)(CCC=C(C)C)C(O)CCC2(C)C1Cc1c(OC)oc(C)c(C(=O)OC)c1=O (centres unmarked)	1.027
C=C1CC[C@@H]2[C@](C)(CC[C@H]3O[C@H](C=C(C)C)C[C@@]23C)[C@@H]1Cc1c(OC)oc(CO)c(C)c1=O	2.102
C=C1CC[C@@H]2[C@](C)(CC[C@H]3O[C@H](C=C(C)C)C[C@@]23C)[C@@H]1Cc1c(OC)oc(CO)c(C(=O)OC)c1=O	0.4918
C=C1CCC2C(C)(CCC=C(C)C)C(O)CCC2(C)C1Cc1c(OC)oc(CO)c(C(=O)OC)c1=O (centres unmarked)	0.4759

# evaluate next
Need Th-T fluorescence, mean of three wells (Fig. 7a), item C=C1CCC2C(C)(CCC=C(C)C)C(O)CCC2(C)C1Cc1c(OC)oc(CO)c(C)c1=O (centres unmarked)
1.488

----------
# SYSTEM: Aβ42 (Homo sapiens, UniProt P05067)
# PROTOCOL: Th-T (thioflavin-T) assay of Aβ42 aggregation
# Format: biochemical
# CONDITION DESCRIPTION: Supplementary Fig. 47 source data; measurement M55 of time course
Recorded Th-T fluorescence, mean of three wells by entry
Keep the answer to the number alone.

Examples from the recorded data:
COMPOUND	SYSTEM	QUANTITY NAME	ENDPOINT RESULT
C=C1CC[C@H]2[C@]3(C)C[C@@H](C=C(C)C)O[C@H]3CC[C@]2(C)[C@@H]1Cc1c(O)c(C)c(C)oc1=O [Compound 5, subglutinol A]	Aβ42 (Homo sapiens, UniProt P05067)	Th-T fluorescence, mean of three wells	2.693
C=C1CCC2C(C)(CC(=O)C=C(C)C)C(O)CCC2(C)C1Cc1c(OC)oc(C)c(C)c1=O (centres unmarked) [Compound 25]	Aβ42 (Homo sapiens, UniProt P05067)	Th-T fluorescence, mean of three wells	3.771
C=C1CCC2C3(C)CC(C=C(C)C)OC3CCC2(C)C1Cc1c(OC)oc(C)c(C)c1=O (centres unmarked) [Compound 23]	Aβ42 (Homo sapiens, UniProt P05067)	Th-T fluorescence, mean of three wells	4.01
C=C1CC[C@H]2[C@]3(C)C[C@H](C=C(C)C)O[C@H]3CC[C@]2(C)[C@@H]1Cc1c(O)c(C)c(C)oc1=O [Compound 6, subglutinol B]	Aβ42 (Homo sapiens, UniProt P05067)	Th-T fluorescence, mean of three wells	3.1238

# evaluate next
Need Th-T fluorescence, mean of three wells, item C=C1CCC2C(C)(CC(=O)C=C(C)C)C(O)CCC2(C)C1Cc1c(O)c(C)c(C)oc1=O (centres unmarked) [Compound 7]
3.592

----------
Recorded Th-T fluorescence, mean of three wells by entry
# SYSTEM: Aβ42 (Homo sapiens)
# PROTOCOL: Th-T (thioflavin-T) assay of Aβ42 aggregation
# Assay type: biochemical
# CONDITION DESCRIPTION: time-course reading M116; Supplementary Fig. 47 source data
Keep the answer to the number alone.

Examples from the recorded data:
COMPOUND	Th-T fluorescence, mean of three wells
C=C1CC[C@H]2[C@]3(C)C[C@@H](C=C(C)C)O[C@H]3CC[C@]2(C)[C@@H]1Cc1c(OC)oc(CO)c(C)c1=O	3.669
C=C1CCC2C(C)(CCC=C(C)C)C(O)CCC2(C)C1Cc1c(OC)oc(CO)c(C)c1=O (stereo not drawn)	2.057
C=C1CCC2C(C)(CCC=C(C)C)C(O)CCC2(C)C1Cc1c(OC)oc(C)c(C)c1=O (stereo not drawn) [Compound 15, viridoxin A hydrolysate]	3.348
C=C1CC[C@@H]2[C@](C)(CC[C@H]3O[C@H](C=C(C)C)C[C@@]23C)[C@@H]1Cc1c(O)c(C)c(C)oc1=O	3.017
C=C1CCC2C(C)(CCC=C(C)C)C(O)CCC2(C)C1Cc1c(OC)oc(C)c(C(=O)OC)c1=O (stereo not drawn)	1.651
C=C1CC[C@H]2[C@]3(C)C[C@H](C=C(C)C)O[C@H]3CC[C@]2(C)[C@@H]1Cc1c(OC)oc(C)c(C)c1=O	3.922

Need Th-T fluorescence, mean of three wells, item C=C1CCC2C(C)(CCC=C(C)C)C(O)CCC2(C)C1Cc1c(O)c(C)c(C)oc1=O (stereo not drawn) [Compound 9, higginsianin B]
2.796

Okay, and C=C1CCC2C(C)(CCC=C(C)C)C(=O)CCC2(C)C1Cc1c(O)c(C)c(C)oc1=O (stereo not drawn) ?
2.237

Okay, and C=C1CCC2C(C)(CCC=C(C)C)C(O)CCC2(C)C1Cc1c(OC)oc(CO)c(C(=O)OC)c1=O (stereo not drawn) ?
1.037

Okay, and C=C1CC[C@H]2[C@]3(C)C[C@H](C=C(C)C)O[C@H]3CC[C@]2(C)[C@@H]1Cc1c(OC)oc(CO)c(C)c1=O ?
3.8198

Okay, and C=C1CC[C@@H]2[C@](C)(CC[C@H]3O[C@H](C=C(C)C)C[C@@]23C)[C@@H]1Cc1c(OC)oc(CO)c(C(=O)OC)c1=O ?
1.042

Okay, and C=C1CCC2C(C)(CCC=C(C)C)C(O)CCC2(C)C1Cc1c(O)c(C)c(C)oc1=O (stereo not drawn) [Compound 4] ?
2.771

Okay, and C=C1CC[C@@H]2[C@](C)(CC[C@H]3O[C@H](C=C(C)C)C[C@@]23C)[C@@H]1Cc1c(OC)oc(CO)c(C)c1=O ?
4.199

Okay, and C=C1CC[C@H]2[C@]3(C)C[C@@H](C=C(C)C)O[C@H]3CC[C@]2(C)[C@@H]1Cc1c(O)c(C)c(C)oc1=O ?
2.67

Okay, and C=C1CCC2C(C)(CC(=O)C=C(C)C)C(O)CCC2(C)C1Cc1c(OC)oc(CO)c(C)c1=O (stereo not drawn) ?
3.617

Okay, and C=C1CC[C@H]2[C@]3(C)C[C@H](C=C(C)C)O[C@H]3CC[C@]2(C)[C@@H]1Cc1c(O)c(C)c(C)oc1=O ?
3.06

Okay, and CC(C)=CCC/C(C)=C/CC/C(C)=C/CC/C(C)=C/Cc1c(O)c(C)c(C)oc1=O ?
2.94

Okay, and C=C1CCC2C(C)(CCC=C(C)C)C(O)CCC2(C)C1Cc1c(OC)oc(C)c(C)c1=O (stereo not drawn) [Compound 11] ?
3.43

Okay, and C=C1CCC2C3(C)CC(C=C(C)C)OC3CCC2(C)C1Cc1c(OC)oc(C)c(C)c1=O (stereo not drawn) ?
3.836

Okay, and C=C1CCC2C(C)(CC(=O)C=C(C)C)C(O)CCC2(C)C1Cc1c(O)c(C)c(C)oc1=O (stereo not drawn) ?
3.458

Okay, and C=C1CCC2C(C)(CC(=O)C=C(C)C)C(O)CCC2(C)C1Cc1c(OC)oc(C)c(C)c1=O (stereo not drawn) ?
3.5953

----------
# SYSTEM: Aβ42 (Homo sapiens)
# PROTOCOL: Th-T (thioflavin-T) assay of Aβ42 aggregation
# Type: biochemical
# CONDITION DESCRIPTION: reading M22; Supplementary Fig. 47 source data
Recorded Th-T fluorescence, mean of three wells by entry
Keep the answer to the number alone.

Examples from the recorded data:
COMPOUND	Th-T fluorescence, mean of three wells
C=C1CCC2C3(C)CC(C=C(C)C)OC3CCC2(C)C1Cc1c(OC)oc(C)c(C)c1=O (centres unmarked)	3.5211
C=C1CC[C@@H]2[C@](C)(CC[C@H]3O[C@H](C=C(C)C)C[C@@]23C)[C@@H]1Cc1c(O)c(C)c(C)oc1=O	2.669
C=C1CC[C@H]2[C@]3(C)C[C@@H](C=C(C)C)O[C@H]3CC[C@]2(C)[C@@H]1Cc1c(O)c(C)c(C)oc1=O	2.381
C=C1CC[C@H]2[C@]3(C)C[C@@H](C=C(C)C)O[C@H]3CC[C@]2(C)[C@@H]1Cc1c(OC)oc(CO)c(C)c1=O	2.776
C=C1CC[C@H]2[C@]3(C)C[C@H](C=C(C)C)O[C@H]3CC[C@]2(C)[C@@H]1Cc1c(OC)oc(CO)c(C)c1=O	3.568

Need Th-T fluorescence, mean of three wells, item CC(C)=CCC/C(C)=C/CC/C(C)=C/CC/C(C)=C/Cc1c(O)c(C)c(C)oc1=O
2.595

Okay, and C=C1CCC2C(C)(CCC=C(C)C)C(=O)CCC2(C)C1Cc1c(O)c(C)c(C)oc1=O (centres unmarked) ?
1.86

Okay, and C=C1CCC2C(C)(CC(=O)C=C(C)C)C(O)CCC2(C)C1Cc1c(OC)oc(CO)c(C)c1=O (centres unmarked) ?
2.644
